- Test system: biotinyl-Ile-oxazolone
- test: self-aminoacylation, catalytic enhancement (BIO) (fold over background); higher = more active; k-Seq, kA / k0A0; sequences stand for … in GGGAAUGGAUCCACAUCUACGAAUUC…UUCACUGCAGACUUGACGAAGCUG
Fewer inactive variants are shown than the library holds.

- residueCodes: "AAGUUUGCUAAUAGUCGCUAC [Fam3.1 aminoacylation ribozyme variant]"
  self-aminoacylation: 0.54
- residueCodes: "AUUACUCUGCUCAUCGAGUGA [Fam2.1 aminoacylation ribozyme variant]"
  self-aminoacylation: 1.29
- residueCodes: "AUGUUUGCUAAUAGUCGCCAG [Fam3.1 aminoacylation ribozyme variant]"
  self-aminoacylation: 1.26
- residueCodes: "AUUACCCUGGUCAUCUAGUGC [Fam2.1 aminoacylation ribozyme variant]"
  self-aminoacylation: 0.835
- residueCodes: "UUACUUCAAAGAAUCGGUCUG [Fam1A.1 aminoacylation ribozyme variant]"
  self-aminoacylation: 1.34
- residueCodes: "CCACGCUUCAAGCAAUCGGAC [Fam1B.1 aminoacylation ribozyme variant]"
  self-aminoacylation: 0.794
- residueCodes: "UUUACCCUGCUCAUCGAGUGA [Fam2.1 aminoacylation ribozyme variant]"
  self-aminoacylation: 1.28
- residueCodes: "AUUAACCUAGGUCAUUGGGUG [Fam2.2 aminoacylation ribozyme variant]"
  self-aminoacylation: 1.93
- residueCodes: "AUGUUUGCUAAUAGUCGCACG [Fam3.1 aminoacylation ribozyme variant]"
  self-aminoacylation: 1.15
- residueCodes: "CCACUUCAAACCAUCGGUCUG [Fam1A.1 aminoacylation ribozyme variant]"
  self-aminoacylation: 1.31
- residueCodes: "GUUCACCUAUGUCAUCGGGUG [Fam2.2 aminoacylation ribozyme variant]"
  self-aminoacylation: 3.1
- residueCodes: "CUACUUCAAACAAACGGCCUG [Fam1A.1 aminoacylation ribozyme variant]"
  self-aminoacylation: 1.38
- residueCodes: "AUUACCAUCGUCAUCGAGUGA [Fam2.1 aminoacylation ribozyme variant]"
  self-aminoacylation: 2.21
- residueCodes: "AUUUACCUAGGUCACCGGGUG [Fam2.2 aminoacylation ribozyme variant]"
  self-aminoacylation: 3.61
- residueCodes: "CCACACUUCGAGCAAACGGUC [Fam1B.1 aminoacylation ribozyme variant]"
  self-aminoacylation: 0.678
- residueCodes: "CUACUUCAAACAAUCUGCCUG [Fam1A.1 aminoacylation ribozyme variant]"
  self-aminoacylation: 0.913
- residueCodes: "AGUACCCCGGUCAUCGAGUGA [Fam2.1 aminoacylation ribozyme variant]"
  self-aminoacylation: 3.7
- residueCodes: "AUGCACCUAGGUCAUCGGCUG [Fam2.2 aminoacylation ribozyme variant]"
  self-aminoacylation: 1.99
